The measurements presented in this section are drawn from ChEMBL document CHEMBL5244273.

# Test system: Mycobacterium tuberculosis
# test: Antimycobacterial activity against isoniazid and rifampicin resistant Mycobacterium tuberculosis by broth dilution method
# Assay type: functional
parameter: MIC

For every item in the list below, what is its measured MIC?
1. C[C@]1(Cn2cc(COc3cccc(F)c3)nn2)Cn2cc([N+](=O)[O-])nc2O1
2. C[C@]1(Cn2cc(CN3CCOCC3)nn2)Cn2cc([N+](=O)[O-])nc2O1
3. C[C@]1(Cn2cc(COc3cccc(Cl)c3)nn2)Cn2cc([N+](=O)[O-])nc2O1

["2 µg/mL", "2 µg/mL", "2 µg/mL"]

For every item in the list below, what is its measured MIC?
1. C[C@]1(Cn2cc(COc3ccccc3F)nn2)Cn2cc([N+](=O)[O-])nc2O1
2. CCc1ccc(OCc2cn(C[C@@]3(C)Cn4cc([N+](=O)[O-])nc4O3)nn2)cc1
3. C[C@]1(Cn2cc(-c3ccc(C(F)(F)F)cc3)nn2)Cn2cc([N+](=O)[O-])nc2O1
4. C[C@]1(Cn2cc(-c3ccc(OC(F)(F)F)cc3)nn2)Cn2cc([N+](=O)[O-])nc2O1
5. C[C@]1(Cn2cc(COc3ccc(Br)cc3)nn2)Cn2cc([N+](=O)[O-])nc2O1

["0.5 µg/mL", "2 µg/mL", "2 µg/mL", "2 µg/mL", "0.12 µg/mL"]

Entry C[C@]1(Cn2cc(-c3ccc(Oc4ccccc4)cc3)nn2)Cn2cc([N+](=O)[O-])nc2O1 , Mycobacterium tuberculosis data, MIC value: 1 µg/mL

====

# Tested on: Mycobacterium tuberculosis
# test: Antitubercular activity against extensively drug resistant Mycobacterium tuberculosis clinical isolate 1 by resazurin microtitre assay
# Type: functional
parameter: MIC (µg/mL)
Answers are plain numbers, in µg/mL.

Sample records with MIC:
CN[C@@H]1[C@H](O[C@H]2[C@H](O[C@H]3[C@H](O)[C@@H](O)[C@H](N=C(N)N)[C@@H](O)[C@@H]3N=C(N)N)O[C@@H](C)[C@]2(O)C=O)O[C@@H](CO)[C@H](O)[C@H]1O    0.78
CC[C@@H](CO)NCCN[C@@H](CC)CO    6.25
CCN(CC)CCOc1c(C(=O)OC)c2c3c(oc2c2ccccc12)C(=O)c1ccccc1C3=O    0.02

Now consider the entry below.
Entry NNC(=O)c1ccncc1 , Mycobacterium tuberculosis data, MIC value: 12.5
